# measurement setup: in diacetone alcohol, 293.15 K

chemical smiles | solubility (mole fraction)
O=C(O)c1ccccc1 | 0.269

----------
# measurement setup: in isooctane, 313.15 K
endpoint: solubility (mole fraction)

chemical smiles | numeric value
O=C(O)c1ccccc1 | 0.018

----------
# measurement setup: in methyl acetate, 288.15 K
endpoint: solubility (mole fraction)

chemical smiles | numeric value
O=C(O)c1ccccc1 | 0.152

----------
# measurement setup: in methyl acetate, 318.15 K

chemical smiles | solubility (mole fraction)
O=C(O)c1ccccc1 | 0.282

----------
# measurement setup: in tributyl phosphate, 328.15 K

chemical smiles | solubility (mole fraction)
O=C(O)c1ccccc1 | 0.631

----------
# measurement setup: in diacetone alcohol, 328.15 K

chemical smiles | solubility (mole fraction)
O=C(O)c1ccccc1 | 0.426

----------
# measurement setup: in 2-pentanone, 303.15 K

chemical smiles | solubility (mole fraction)
O=C(O)c1ccccc1 | 0.234

----------
# measurement setup: in isooctane, 298.15 K

chemical smiles | solubility (mole fraction)
O=C(O)c1ccccc1 | 0.007

----------
# measurement setup: in 2-pentanone, 308.15 K
endpoint: solubility (mole fraction)

chemical smiles | result
O=C(O)c1ccccc1 | 0.256

----------
# measurement setup: in methyl acetate, 323.15 K
endpoint: solubility (mole fraction)

chemical smiles | numeric value
O=C(O)c1ccccc1 | 0.318

----------
# measurement setup: in isooctane, 318.15 K
endpoint: solubility (mole fraction)

chemical smiles | endpoint | numeric value
O=C(O)c1ccccc1 | solubility (mole fraction) | 0.023

----------
# measurement setup: in methyl acetate, 328.15 K
endpoint: solubility (mole fraction)

chemical smiles | endpoint | numeric value
O=C(O)c1ccccc1 | solubility (mole fraction) | 0.348

----------
# measurement setup: in tributyl phosphate, 313.15 K
endpoint: solubility (mole fraction)

chemical smiles | result
O=C(O)c1ccccc1 | 0.563

----------
# measurement setup: in n-pentyl acetate, 283.15 K

chemical smiles | solubility (mole fraction)
O=C(O)c1ccccc1 | 0.091

----------
# measurement setup: in n-pentyl acetate, 303.15 K

chemical smiles | solubility (mole fraction)
O=C(O)c1ccccc1 | 0.179

----------
# measurement setup: in isooctane, 328.15 K

chemical smiles | solubility (mole fraction)
O=C(O)c1ccccc1 | 0.04

----------
# measurement setup: in methyl acetate, 308.15 K
endpoint: solubility (mole fraction)

chemical smiles | endpoint | numeric value
O=C(O)c1ccccc1 | solubility (mole fraction) | 0.237

----------
# measurement setup: in diacetone alcohol, 313.15 K
endpoint: solubility (mole fraction)

chemical smiles | numeric value
O=C(O)c1ccccc1 | 0.336

----------
# measurement setup: in n-pentyl acetate, 313.15 K

chemical smiles | solubility (mole fraction)
O=C(O)c1ccccc1 | 0.226
